System: LXRa homodimer (NR concentration 270 nM)
Test: PBM binding z-score (relative to random genomic background probes); higher = stronger binding; sequences stand for … in GC…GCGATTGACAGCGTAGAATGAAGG
Kind request: treat 1 as inclusive, so PBM binding z-score at 1 or higher is class 1, anything lower is class 0.

> print(dat)
                        chain.sequence                               test.system      cat
 1  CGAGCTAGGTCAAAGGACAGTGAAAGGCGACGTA  LXRa homodimer (NR concentration 270 nM)  class 0
 2  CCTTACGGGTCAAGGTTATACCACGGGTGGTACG  LXRa homodimer (NR concentration 270 nM)  class 0
 3  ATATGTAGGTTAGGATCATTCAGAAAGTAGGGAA  LXRa homodimer (NR concentration 270 nM)  class 0
 4  CTATGTAGGTAAAGGGGGTCATTCAGTTTGAAAG  LXRa homodimer (NR concentration 270 nM)  class 1
 5  CGAACGAGGTCAGAACAGGACAGTGAAGGATGAT  LXRa homodimer (NR concentration 270 nM)  class 0
 6  CATACACGGTCAGCTAGGCCAGAGTAGGGACGGC  LXRa homodimer (NR concentration 270 nM)  class 0
 7  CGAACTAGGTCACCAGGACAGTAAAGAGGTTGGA  LXRa homodimer (NR concentration 270 nM)  class 0
 8  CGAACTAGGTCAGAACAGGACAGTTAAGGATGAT  LXRa homodimer (NR concentration 270 nM)  class 0
 9  ATATGTCGGTTAGGGTCATTCAGAAAGTAGGGAA  LXRa homodimer (NR concentration 270 nM)  class 1
10  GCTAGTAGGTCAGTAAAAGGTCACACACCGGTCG  LXRa homodimer (NR concentration 270 nM)  class 1
11  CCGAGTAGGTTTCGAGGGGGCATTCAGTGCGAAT  LXRa homodimer (NR concentration 270 nM)  class 1
12  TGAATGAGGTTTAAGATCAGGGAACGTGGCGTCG  LXRa homodimer (NR concentration 270 nM)  class 0
13  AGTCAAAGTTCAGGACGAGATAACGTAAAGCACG  LXRa homodimer (NR concentration 270 nM)  class 1
14  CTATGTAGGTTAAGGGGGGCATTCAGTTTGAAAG  LXRa homodimer (NR concentration 270 nM)  class 1
